Exercise: state measured log10 of IC50 for each of the compounds provided.
system: HT-144; assay: cells; type: functional, cell-based, Homo sapiens; settings: Homo sapiens, HT-144
Description: SANGER: Inhibition of human HT-144 cell growth in a cell viability assay.
All values: log10 IC50 [nM].

Illustrative cases are given below, each with its answer.
Compound	log10 of IC50
COc1cc([C@@H]2c3cc4c(cc3[C@@H](O[C@@H]3O[C@@H]5CO[C@@H](C)O[C@H]5[C@H](O)[C@H]3O)[C@H]3COC(=O)[C@H]23)OCO4)cc(OC)c1O [ETOPOSIDE]	1.30
CCc1nc(N)nc(N)c1-c1ccc(Cl)cc1 [PYRIMETHAMINE]	3.83
C=CCNC1=C2C[C@@H](C)C[C@H](OC)[C@H](O)[C@@H](C)/C=C(\C)[C@H](OC(N)=O)[C@@H](OC)/C=C\C=C(/C)C(=O)NC(=CC1=O)C2=O [TANESPIMYCIN]	1.49
O=C(NOCC1CC1)c1ccc(F)c(F)c1Nc1ccc(I)cc1Cl [CI-1040]	2.81

Now let's try a different one.
Prompt line: Reported log10 of IC50, compound Cn1cncc1[C@@](N)(c1ccc(Cl)cc1)c1ccc2c(c1)c(-c1cccc(Cl)c1)cc(=O)n2C [TIPIFARNIB] : ____
Response line: 3.16
